- target or system: T1, Recombinant human CD206 (MRC1/CD206) (human, UniProt P22897 19-1383, limits assumed)
- T1 construct: Bought protein; also called recombinant MRC1/CD206; rMRC1/CD206
- T1 sequence (looked up): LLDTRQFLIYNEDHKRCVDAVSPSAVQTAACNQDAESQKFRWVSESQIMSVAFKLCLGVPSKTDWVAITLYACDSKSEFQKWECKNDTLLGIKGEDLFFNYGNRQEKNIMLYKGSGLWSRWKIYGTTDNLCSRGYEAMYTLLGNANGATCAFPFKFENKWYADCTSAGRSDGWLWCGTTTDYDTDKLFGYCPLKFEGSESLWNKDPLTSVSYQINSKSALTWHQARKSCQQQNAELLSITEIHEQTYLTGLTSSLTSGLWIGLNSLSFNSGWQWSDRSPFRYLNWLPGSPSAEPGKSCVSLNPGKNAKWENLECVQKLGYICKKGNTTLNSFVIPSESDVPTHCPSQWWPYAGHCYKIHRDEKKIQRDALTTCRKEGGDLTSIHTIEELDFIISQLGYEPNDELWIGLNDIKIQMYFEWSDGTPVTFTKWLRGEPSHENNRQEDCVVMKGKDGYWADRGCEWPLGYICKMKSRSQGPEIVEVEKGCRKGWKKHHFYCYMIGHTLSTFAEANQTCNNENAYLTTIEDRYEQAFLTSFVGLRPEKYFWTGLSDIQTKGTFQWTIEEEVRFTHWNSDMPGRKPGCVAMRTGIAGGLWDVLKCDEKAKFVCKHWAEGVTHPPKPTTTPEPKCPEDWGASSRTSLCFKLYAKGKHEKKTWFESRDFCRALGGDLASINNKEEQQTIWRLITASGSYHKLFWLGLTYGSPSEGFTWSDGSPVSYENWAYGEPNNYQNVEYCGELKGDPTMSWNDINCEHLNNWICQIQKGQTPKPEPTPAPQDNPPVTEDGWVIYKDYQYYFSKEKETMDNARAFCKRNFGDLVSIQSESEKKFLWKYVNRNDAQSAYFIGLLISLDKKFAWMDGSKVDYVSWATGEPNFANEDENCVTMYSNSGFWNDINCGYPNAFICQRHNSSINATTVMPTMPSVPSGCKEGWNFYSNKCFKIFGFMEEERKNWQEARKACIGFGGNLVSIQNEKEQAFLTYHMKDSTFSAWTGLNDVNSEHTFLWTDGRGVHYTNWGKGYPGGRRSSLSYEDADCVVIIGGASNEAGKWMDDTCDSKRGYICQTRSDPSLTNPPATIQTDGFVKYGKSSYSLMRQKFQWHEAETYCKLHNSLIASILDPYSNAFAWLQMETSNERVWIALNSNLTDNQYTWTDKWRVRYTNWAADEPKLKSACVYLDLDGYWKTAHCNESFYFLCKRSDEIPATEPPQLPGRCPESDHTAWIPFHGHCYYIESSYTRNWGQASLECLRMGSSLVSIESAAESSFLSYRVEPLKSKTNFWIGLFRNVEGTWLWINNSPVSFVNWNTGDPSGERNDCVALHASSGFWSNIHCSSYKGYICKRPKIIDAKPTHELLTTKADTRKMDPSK
- assay text: microscale thermophoresis, label-free, recombinant CD206

binder	Kd
KARKAAKRAF (Designed as a control to test the impact of hydrophobicity on activity) [RP-426]	85 µM
